assay: Solubility test of sulfate (Crystalline form III) in various solvents; assay type: physicochemical; settings: organic solvent or mixture, thermodynamic from solid; CHCl3, 50° C.; read-out: Solubility
assayReadout: solubility

{"columns": ["compound", "result"],
 "data": [
  ["O=S1(=O)CCN(Cc2cc(NC3CCOCC3)c3[nH]c(-c4ccccc4)cc3c2)CC1 [Sulfate]", "< 2000 µg/mL"]
]}

* * *

assay: Physicochemical stability test of free form and 5 salts (60° C., 40° C./75% humidity, light); conditions: 60° C., 1 w; summary Table 9
Listing: Chemical stability (purity change %/1 w), 60° C. of selected molecules
assayReadout: Chemical stability (purity change %/1 w), 60° C. (%)

{"columns": ["molecule", "quantitativeReadout"],
 "data": [
  ["Cc1ccc(S(=O)(=O)O)cc1.O=S1(=O)CCN(Cc2cc(NC3CCOCC3)c3[nH]c(-c4ccccc4)cc3c2)CC1 [Tosylate]", "−0.05"],
  ["CS(=O)(=O)O.O=S1(=O)CCN(Cc2cc(NC3CCOCC3)c3[nH]c(-c4ccccc4)cc3c2)CC1 [Mesylate]", 0],
  ["Cl.O=S1(=O)CCN(Cc2cc(NC3CCOCC3)c3[nH]c(-c4ccccc4)cc3c2)CC1 [Hydrochloride]", 0.18],
  ["O=S1(=O)CCN(Cc2cc(NC3CCOCC3)c3[nH]c(-c4ccccc4)cc3c2)CC1 [Sulfate]", 0.1],
  ["O=C(O)/C=C\\C(=O)O.O=S1(=O)CCN(Cc2cc(NC3CCOCC3)c3[nH]c(-c4ccccc4)cc3c2)CC1 [Maleate]", "−0.44"]
]}

* * *

test: Solubility of compound of Chemical Formula 1 in various solvents; format: physicochemical; conditions: organic solvent or mixture; Ethanol (EtOH), 25° C.; read-out: Solubility

{"columns": ["molecule", "solubility, µg/mL"],
 "data": [
  ["O=S1(=O)CCN(Cc2cc(NC3CCOCC3)c3[nH]c(-c4ccccc4)cc3c2)CC1 [compound of Chemical Formula 1]", 1410]
]}

* * *

experiment: Solubility of compound of Chemical Formula 1 in various solvents; type: physicochemical; details: organic solvent or mixture; Methyl ethyl ketone (MEK), 50° C.; read-out: Solubility

{"columns": ["itemSmiles", "solubility"],
 "data": [
  ["O=S1(=O)CCN(Cc2cc(NC3CCOCC3)c3[nH]c(-c4ccccc4)cc3c2)CC1", "8120 µg/mL"]
]}

* * *

Experiment: Solubility of compound of Chemical Formula 1 in various solvents
Format: physicochemical
Details: organic solvent or mixture; Dimethyl sulfoxide (DMSO), 50° C.; read-out: Solubility
Text: Very low solubility in various solvents adversely affects pharmaceutical development that requires the production of a finished product in a completely dissolved state.

{"columns": ["itemSmiles", "solubility (mg/mL)"],
 "data": [
  ["O=S1(=O)CCN(Cc2cc(NC3CCOCC3)c3[nH]c(-c4ccccc4)cc3c2)CC1", 238]
]}

* * *

test: Physicochemical stability test of free form and 5 salts (60° C., 40° C./75% humidity, light); conditions: 1.2 million lux-hr

{"columns": ["compound", "unitOfMeasure", "Assay"],
 "data": [
  ["O=C(O)/C=C\\C(=O)O.O=S1(=O)CCN(Cc2cc(NC3CCOCC3)c3[nH]c(-c4ccccc4)cc3c2)CC1 [Maleate]", "%", 109.56],
  ["Cc1ccc(S(=O)(=O)O)cc1.O=S1(=O)CCN(Cc2cc(NC3CCOCC3)c3[nH]c(-c4ccccc4)cc3c2)CC1 [Tosylate]", "%", 105.78],
  ["Cl.O=S1(=O)CCN(Cc2cc(NC3CCOCC3)c3[nH]c(-c4ccccc4)cc3c2)CC1 [Hydrochloride]", "%", 108.65],
  ["O=S1(=O)CCN(Cc2cc(NC3CCOCC3)c3[nH]c(-c4ccccc4)cc3c2)CC1 [Sulfate]", "%", 104.98],
  ["CS(=O)(=O)O.O=S1(=O)CCN(Cc2cc(NC3CCOCC3)c3[nH]c(-c4ccccc4)cc3c2)CC1 [Mesylate]", "%", 102.69]
]}

* * *

assay: Solubility of compound of Chemical Formula 1 in various solvents; assay type: physicochemical; settings: organic solvent or mixture; Acetone, 25° C.; read-out: Solubility

{"columns": ["itemSmiles", "solubility, µg/mL"],
 "data": [
  ["O=S1(=O)CCN(Cc2cc(NC3CCOCC3)c3[nH]c(-c4ccccc4)cc3c2)CC1", 5290]
]}

* * *

Test: Solubility of compound of Chemical Formula 1 in various solvents
Format: physicochemical
Settings: organic solvent or mixture; 1-Butanol, 25° C.; read-out: Solubility
Description: Very low solubility in various solvents adversely affects pharmaceutical development that requires the production of a finished product in a completely dissolved state.
assayReadout: solubility (µg/mL)

{"columns": ["molecule", "quantitativeReadout"],
 "data": [
  ["O=S1(=O)CCN(Cc2cc(NC3CCOCC3)c3[nH]c(-c4ccccc4)cc3c2)CC1 [compound of Chemical Formula 1]", 650]
]}

* * *

assay: Physicochemical stability test of free form and 5 salts (60° C., 40° C./75% humidity, light); details: 1.2 million lux-hr
assayReadout: Purity change (%)

{"columns": ["molecule", "assayReadout", "quantitativeReadout"],
 "data": [
  ["O=C(O)/C=C\\C(=O)O.O=S1(=O)CCN(Cc2cc(NC3CCOCC3)c3[nH]c(-c4ccccc4)cc3c2)CC1 [Maleate]", "Purity change", "−0.17"],
  ["Cl.O=S1(=O)CCN(Cc2cc(NC3CCOCC3)c3[nH]c(-c4ccccc4)cc3c2)CC1 [Hydrochloride]", "Purity change", 0],
  ["Cc1ccc(S(=O)(=O)O)cc1.O=S1(=O)CCN(Cc2cc(NC3CCOCC3)c3[nH]c(-c4ccccc4)cc3c2)CC1 [Tosylate]", "Purity change", "−0.24"],
  ["CS(=O)(=O)O.O=S1(=O)CCN(Cc2cc(NC3CCOCC3)c3[nH]c(-c4ccccc4)cc3c2)CC1 [Mesylate]", "Purity change", "−0.82"]
]}

* * *

test: Physicochemical stability test of free form and 5 salts (60° C., 40° C./75% humidity, light); settings: Dark control
Assay values for the compounds below.

{"columns": ["compound", "Assay [%]"],
 "data": [
  ["Cl.O=S1(=O)CCN(Cc2cc(NC3CCOCC3)c3[nH]c(-c4ccccc4)cc3c2)CC1 [Hydrochloride]", 108.99],
  ["Cc1ccc(S(=O)(=O)O)cc1.O=S1(=O)CCN(Cc2cc(NC3CCOCC3)c3[nH]c(-c4ccccc4)cc3c2)CC1 [Tosylate]", 108.98],
  ["O=C(O)/C=C\\C(=O)O.O=S1(=O)CCN(Cc2cc(NC3CCOCC3)c3[nH]c(-c4ccccc4)cc3c2)CC1 [Maleate]", 109.66],
  ["O=S1(=O)CCN(Cc2cc(NC3CCOCC3)c3[nH]c(-c4ccccc4)cc3c2)CC1 [Sulfate]", 105.93],
  ["CS(=O)(=O)O.O=S1(=O)CCN(Cc2cc(NC3CCOCC3)c3[nH]c(-c4ccccc4)cc3c2)CC1 [Mesylate]", 103.03]
]}

* * *

assay: Physicochemical stability test of free form and 5 salts (60° C., 40° C./75% humidity, light); conditions: 1.2 million lux-hr; HPLC
Collected Final purity values appear next to each entry.

{"columns": ["compound", "Final purity / %"],
 "data": [
  ["CS(=O)(=O)O.O=S1(=O)CCN(Cc2cc(NC3CCOCC3)c3[nH]c(-c4ccccc4)cc3c2)CC1 [Mesylate]", 99.18],
  ["Cl.O=S1(=O)CCN(Cc2cc(NC3CCOCC3)c3[nH]c(-c4ccccc4)cc3c2)CC1 [Hydrochloride]", 99.95],
  ["O=S1(=O)CCN(Cc2cc(NC3CCOCC3)c3[nH]c(-c4ccccc4)cc3c2)CC1 [Sulfate]", 99.87],
  ["Cc1ccc(S(=O)(=O)O)cc1.O=S1(=O)CCN(Cc2cc(NC3CCOCC3)c3[nH]c(-c4ccccc4)cc3c2)CC1 [Tosylate]", 98.77],
  ["O=C(O)/C=C\\C(=O)O.O=S1(=O)CCN(Cc2cc(NC3CCOCC3)c3[nH]c(-c4ccccc4)cc3c2)CC1 [Maleate]", 96.86]
]}

* * *

experiment: Oral administration pharmacokinetic test using mice; details: mice, oral, 10 mg/kg

{"columns": ["molecule", "t½ [h]"],
 "data": [
  ["O=C(O)/C=C\\C(=O)O.O=S1(=O)CCN(Cc2cc(NC3CCOCC3)c3[nH]c(-c4ccccc4)cc3c2)CC1 [Maleate]", 2.8],
  ["Cl.O=S1(=O)CCN(Cc2cc(NC3CCOCC3)c3[nH]c(-c4ccccc4)cc3c2)CC1 [Hydrochloride]", 3.0],
  ["Cc1ccc(S(=O)(=O)O)cc1.O=S1(=O)CCN(Cc2cc(NC3CCOCC3)c3[nH]c(-c4ccccc4)cc3c2)CC1 [Tosylate]", 2.8],
  ["CS(=O)(=O)O.O=S1(=O)CCN(Cc2cc(NC3CCOCC3)c3[nH]c(-c4ccccc4)cc3c2)CC1 [Mesylate]", 2.3],
  ["O=S1(=O)CCN(Cc2cc(NC3CCOCC3)c3[nH]c(-c4ccccc4)cc3c2)CC1 [Sulfate]", 4.0]
]}

Data origin: patent US20240199598A1
